Source: ChEMBL document CHEMBL4842385

# TARGET ENTITY: Histone deacetylase (Homo sapiens) (UniProt Q13547+O15379+Q9UBN7+Q92769+Q9UQL6+Q8WUI4+Q9BY41+Q96DB2+P56524+Q9UKV0+Q969S8)
# ASSAY SETUP: HeLa, Nucleus, dose 1000.0 nM, time 1.0 hrs
Classification field. Basis: inhibition. Definitions: range A = under 50%, range B = from 50% up to 90%, range C = 90% and over

O=C(CCCCCCO/N=C1/C(=C2/C(=O)Nc3ccc([N+](=O)[O-])cc32)Nc2ccccc21)NO; range B

### Prompt Exam item: assign O=C(CCCCCCO/N=C1/C(=C2/C(=O)Nc3ccc(I)cc32)Nc2ccccc21)NO to the correct category.
### Response range B

### Prompt // return the class label for COc1ccc2c(c1)C(=N\OCCCCCCC(=O)NO)/C(=C1/C(=O)Nc3ccccc31)N2
### Response range C

### Prompt Class for O=C1Nc2ccccc2/C1=C1/Nc2ccccc2C1=O ?
### Response range A

### Prompt Each compound maps to one class by inhibition. Which class for O=C(CO/N=C1/C(=C2/C(=O)Nc3ccccc32)Nc2ccccc21)NO ?
### Response range A

###

# TARGET ENTITY: Histone deacetylase 1 (Homo sapiens, UniProt Q13547)
# Sequence (Q13547 whole entry): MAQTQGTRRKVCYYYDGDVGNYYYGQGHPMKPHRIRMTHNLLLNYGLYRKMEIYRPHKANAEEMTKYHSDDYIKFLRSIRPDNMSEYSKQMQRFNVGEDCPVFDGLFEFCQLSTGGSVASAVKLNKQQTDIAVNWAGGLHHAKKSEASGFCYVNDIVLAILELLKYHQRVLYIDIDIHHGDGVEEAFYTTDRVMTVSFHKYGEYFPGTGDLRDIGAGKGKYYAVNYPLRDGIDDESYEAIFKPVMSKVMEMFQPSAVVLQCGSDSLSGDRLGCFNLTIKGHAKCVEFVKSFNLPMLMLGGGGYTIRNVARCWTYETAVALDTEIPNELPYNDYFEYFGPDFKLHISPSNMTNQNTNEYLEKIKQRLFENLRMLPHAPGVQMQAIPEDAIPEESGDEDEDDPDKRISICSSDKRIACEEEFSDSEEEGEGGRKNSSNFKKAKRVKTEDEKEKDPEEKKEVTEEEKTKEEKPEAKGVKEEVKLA
pIC50: −log10 of the molar value.
EXPERIMENTAL ENDPOINT: pIC50

### Prompt If you can, please state the reported pIC50 value of O=C(CCCO/N=C1/C(=C2/C(=O)Nc3ccccc32)Nc2ccccc21)NO .
### Response < 5.30

###

# TARGET ENTITY: NAD-dependent protein deacetylase sirtuin-2 (Homo sapiens, UniProt Q8IXJ6)
# Sequence (Q8IXJ6 whole entry): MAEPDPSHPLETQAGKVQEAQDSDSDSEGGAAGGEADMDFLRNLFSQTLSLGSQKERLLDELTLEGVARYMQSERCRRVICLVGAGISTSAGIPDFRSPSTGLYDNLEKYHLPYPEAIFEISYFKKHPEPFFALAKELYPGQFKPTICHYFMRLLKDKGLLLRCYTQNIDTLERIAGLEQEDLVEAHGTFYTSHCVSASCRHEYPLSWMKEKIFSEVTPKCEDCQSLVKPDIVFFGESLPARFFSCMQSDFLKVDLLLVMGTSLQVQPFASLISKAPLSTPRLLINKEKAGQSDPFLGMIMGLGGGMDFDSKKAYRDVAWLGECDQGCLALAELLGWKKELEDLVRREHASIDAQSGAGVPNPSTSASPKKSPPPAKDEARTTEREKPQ
# EXPERIMENT NOTES: Inhibition of recombinant human SIRT2 measured after 30 mins by fluorescence microplate reader assay
pIC50: −log10 of the molar value.
EXPERIMENTAL ENDPOINT: pIC50

For every listed record, write down its pIC50.
1. O=C(O)CCCO/N=C1/C(=C2/C(=O)Nc3ccccc32)Nc2ccccc21
2. O=C(CCCO/N=C1/C(=C2/C(=O)Nc3ccccc32)Nc2ccccc21)NO

### Response
1: < 4.00; 2: < 4.00

###

# TARGET ENTITY: CDK2/Cyclin A2 (Homo sapiens) (UniProt P24941+P20248)
# ASSAY SETUP: dose 100.0 nM, time 10.0 min
Label met when inhibition is at or above 30%; anything below gets not met.

Cc1cccc2c1NC(=O)/C2=C1\Nc2ccccc2\C1=N/OCCCCCCC(=O)NO; not met
O=C(CCCCCCO/N=C1/C(=C2/C(=O)Nc3ccccc32)Nc2ccc(Cl)cc21)NO; not met
O=C(CCCCCCO/N=C1/C(=C2/C(=O)Nc3ccc(Cl)cc32)Nc2ccccc21)NO; met
O=C(CCCCO/N=C1/C(=C2/C(=O)Nc3ccccc32)Nc2ccccc21)NO; met
C#CCN1C(=O)/C(=C2\Nc3ccccc3\C2=N/OCCCC(=O)NO)c2ccccc21; not met

### Prompt Given the entry O=C1Nc2ccccc2/C1=C1/Nc2ccccc2C1=O [INDIRUBIN] , answer whether its inhibition meets or surpasses 30%.
### Response not met

### Prompt For this compound, is measured inhibition 30% or higher? O=C(CCCCCCCO/N=C1/C(=C2/C(=O)Nc3ccccc32)Nc2ccccc21)NO
### Response not met

###

# TARGET ENTITY: CDK4/Cyclin D3 (Homo sapiens) (UniProt P11802+P30281)
# ASSAY SETUP: dose 100.0 nM, time 10.0 min
EXPERIMENTAL ENDPOINT: inhibition
Answer format: value, then unit.

O=C(CCCCCCO/N=C1/C(=C2/C(=O)Nc3ccc(I)cc32)Nc2ccccc21)NO; 9.7%
O=C(CCCCCCO/N=C1/C(=C2/C(=O)Nc3ccc(Cl)cc32)Nc2ccccc21)NO; 18%
Cc1cccc2c1NC(=O)/C2=C1\Nc2ccccc2\C1=N/OCCCCCCC(=O)NO; 2%
O=C(CCCCCCCO/N=C1/C(=C2/C(=O)Nc3ccccc32)Nc2ccccc21)NO; -4.5%
O=C(CCCCCCO/N=C1/C(=C2/C(=O)Nc3c2cccc3C(F)(F)F)Nc2ccccc21)NO; -5.6%

For each entry beneath this line, provide reported inhibition.
1. O=C1Nc2ccccc2/C1=C1/Nc2ccccc2/C1=N\O
2. O=C(CCCO/N=C1/C(=C2/C(=O)Nc3ccc(Br)cc32)Nc2ccccc21)NO
3. O=C(CCCCO/N=C1/C(=C2/C(=O)Nc3ccc(Br)cc32)Nc2ccccc21)NO
4. O=C(CCCCCCO/N=C1/C(=C2/C(=O)Nc3ccc([N+](=O)[O-])cc32)Nc2ccccc21)NO

### Response
1: -1.5%; 2: -0.2%; 3: 17.9%; 4: 1.1%
